Target: T1, dog iRhom2 (Canis lupus familiaris, UniProt Q00M95)
T1 construct: pMSCV-dog-iR2-FL-WT-T7 encoding dog iRhom2 full length wild type; expressed in transfected cells; host or cells: immortalized iRhom1/2-/- DKO mouse embryonic fibroblasts, pMSCV retroviral infection
T1 sequence (Q00M95 1-827): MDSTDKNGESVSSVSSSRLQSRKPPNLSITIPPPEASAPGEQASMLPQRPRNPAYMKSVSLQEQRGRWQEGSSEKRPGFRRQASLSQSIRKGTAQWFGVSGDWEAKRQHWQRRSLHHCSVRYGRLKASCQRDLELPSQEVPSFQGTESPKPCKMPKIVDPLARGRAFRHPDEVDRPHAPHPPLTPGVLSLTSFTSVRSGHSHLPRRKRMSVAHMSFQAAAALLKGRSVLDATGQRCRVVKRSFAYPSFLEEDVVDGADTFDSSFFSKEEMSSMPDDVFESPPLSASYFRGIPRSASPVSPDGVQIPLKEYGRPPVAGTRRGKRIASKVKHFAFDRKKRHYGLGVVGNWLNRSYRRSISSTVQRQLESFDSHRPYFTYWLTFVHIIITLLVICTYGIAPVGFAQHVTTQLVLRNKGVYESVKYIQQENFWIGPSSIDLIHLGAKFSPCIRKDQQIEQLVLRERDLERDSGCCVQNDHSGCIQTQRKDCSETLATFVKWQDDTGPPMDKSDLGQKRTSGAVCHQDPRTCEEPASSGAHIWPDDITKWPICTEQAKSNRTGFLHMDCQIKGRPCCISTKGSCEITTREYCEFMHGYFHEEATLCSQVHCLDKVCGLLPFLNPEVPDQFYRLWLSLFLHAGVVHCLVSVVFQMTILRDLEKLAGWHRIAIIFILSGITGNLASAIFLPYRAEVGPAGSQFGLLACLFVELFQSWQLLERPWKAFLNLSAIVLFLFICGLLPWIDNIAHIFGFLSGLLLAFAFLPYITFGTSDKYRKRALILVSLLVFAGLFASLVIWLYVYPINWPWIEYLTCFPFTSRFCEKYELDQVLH
Assay: FACS cross-reactivity on MEF-DKO-Dog-iR2-FL-WT-T7 cells
Type: binding
Settings: antibody at 3 μg/ml
RECORDED METRIC: binding to dog iRhom2 on MEF-DKO-Dog-iR2-FL-WT-T7 cells

23-B-04: humanized antibody binding human iRhom2; HCVD SEQ ID NO 25, LCVD SEQ ID NO 29 (antibody, V domains shown, antibody sequences) VH: QVTLRESGPALVKPTQTLTLTCTFSGFSLSTFGMGVGWIRQPPGKALEWLAHIWWDDEKYYNSALKSRLTISKDTSKNQVVLTITNMDPVDTATYYCARISNYGSNYWYFNVWGQGTLVTVSS VL: AIQLTQSPSSLSASVGDRVTITCRASSSVSYMYWYQQKPGKAPKVLIYDTSNLASGVPSRFSGSGSGTDYTLTISSLQPEDFATYYCQQWNAYPLTFGQGTKLEIK	recognize dog iRhom2
16-B-05: humanized antibody binding human iRhom2; HCVD SEQ ID NO 9, LCVD SEQ ID NO 13 (antibody, V domains shown, antibody sequences) VH: QVTLRESGPALVKPTQTLTLTCTFSGFSLSTFALGVGWIRQPPGKALEWLAHIWWDEDKYYNPALKSRLTISKDTSKNQVVLTITNMDPVDTATYYCARITTYYYGMDYWGQGTLVTVSS VL: EIVMTQSPDFQSVTPKEKVTITCRASQSIGNHLHWYQQKPDASPKLLIKYASQSISGVPSRFSGSGSGTDFTLTINSLEAEDAATYFCQQSYNWPLTFGQGTKLEIK	recognize dog iRhom2
42-B-04: humanized antibody binding human iRhom2; HCVD SEQ ID NO 41, LCVD SEQ ID NO 45 (antibody, V domains shown, antibody sequences) VH: QVTLRESGPALVKPTQTLTLTCTFSGFSLSTFGRGVGWIRQPPGKALEWLAHIWWDDEKYYNSALKSRLTISKDTSKNQVVLTITNMDPVDTATYYCARIQNYGSNYWYFDVWGQGTLVTVSS VL: AIQLTQSPSSLSASVGDRVTITCRASSRISYMFWYQQKPGKAPKVLIYDTSNLASGVPSRFSGSGSGTDYTLTISSLQPEDFATYYCQQWNAYPLTFGQGTKLEIK	recognize dog iRhom2
16-B-07: humanized antibody binding human iRhom2; HCVD SEQ ID NO 17, LCVD SEQ ID NO 21 (antibody, V domains shown, antibody sequences) VH: QVTLRESGPALVKPTQTLTLTCTFSGFSLSTFALGVGWIRQPPGKALEWLAHIWWDEDKYYNPALKSRLTISKDTSKNQVVLTITNMDPVDTATYYCARITTYYYGMDYWGQGTLVTVSS VL: EIVMTQSPDFQSVTPKEKVTITCRASQSIGNHLHWYQQKPDASPKLLIKYASQSISGVPSRFSGSGSGTDFTLTINSLEAEDAATYFCQQSYQWPLTFGQGTKLEIK	recognize dog iRhom2
